B1: HDV Ribozyme (parent)
chain: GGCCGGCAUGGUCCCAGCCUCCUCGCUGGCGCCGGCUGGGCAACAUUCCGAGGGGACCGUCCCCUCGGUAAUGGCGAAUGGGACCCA

variants of: B1; assay: self-cleavage, relative activity (ratio to wild type); higher = more cleavage; co-transcriptional
Class Condition met: self-cleavage at least 0.7. Class Condition not met: self-cleavage below 0.7.

Mutation Annotation	Category Label
A16G C30U	Condition not met
A77G C86G	Condition met
U9A C41A	Condition met

q: Could you tell me if the measured self-cleavage of C48G U69C reaches 0.7 or more?
a: Condition met

q: Could you tell me if the measured self-cleavage of U46G G76U reaches 0.7 or more?
a: Condition met

q: Could you tell me if the measured self-cleavage of C19A G52U reaches 0.7 or more?
a: Condition not met

Numbers sourced from the RNAGym collection of RNA variant scans (doi:10.7554/elife.80360).
